Readings of residual activity for the listed compounds
# system: PLK3 (human)
# assay_procedure: radiometric filter-binding kinase assay, Kinase HotSpot
# stated_conditions: compound 0.5 µM; ATP 10 µM
measurement_name: residual activity (%)

| input_smiles | system | measurement_name | test_value |
| --- | --- | --- | --- |
| COc1cc2c(N3CCN(C(=O)Nc4ccc(OC(C)C)cc4)CC3)ncnc2cc1OCCCN1CCCCC1 | PLK3 (human) | residual activity | 99.3 |
| Nc1ncnc2c1cnn2-c1ccccc1 | PLK3 (human) | residual activity | 94.6 |
| O=c1[nH]c2ccccc2n1C1CCN(Cc2ccc(-c3nc4cc5[nH]cnc5cc4nc3-c3ccccc3)cc2)CC1 | PLK3 (human) | residual activity | 99.1 |
| COc1cc2c(cc1OC)-c1[nH]nc(Nc3cccc(F)c3)c1C2 | PLK3 (human) | residual activity | 94.9 |
